# Tested on: S. pneumoniae 157E
# procedureDetails: In vitro minimum inhibitory concentration (MIC) assay, S. pneumoniae
# Type: cell-based
# Set-up: key: Compounds which showed superior inhibition of S. aureus, S. pseumoniae and E. coli are indicated by “***,”; compounds which showed very good or good inhibition of S. aureus, S. pseumoniae and E. coli are indicated by “**” or “*” respectively; compounds which showed very good or good inhibition of S. aureus, S. pseumoniae and E. coli are indicated by “**” or “*” respectively
# statedConditions: broth microdilution in CAMHB, 35° C., approximately 18 hour
measurementKind: Median MIC for S. pneumoniae 157E

Please review the following examples before continuing.
CN(C)c1cc(-c2cnoc2)c(O)c2c1C[C@H]1C[C@H]3[C@H](N(C)C)C(O)=C(C(N)=O)C(=O)[C@@]3(O)C(O)=C1C2=O :: ***
CCNC(=O)c1cc(N(C)C)c2c(c1O)C(=O)C1=C(O)[C@]3(O)C(=O)C(C(N)=O)=C(O)[C@@H](N(C)C)[C@@H]3C[C@@H]1C2 :: *
COCCN(C)C(=O)c1cc(N(C)C)c2c(c1O)C(=O)C1=C(O)[C@]3(O)C(=O)C(C(N)=O)=C(O)[C@@H](N(C)C)[C@@H]3C[C@@H]1C2 :: *
CN(C)c1cc(-c2cccc(C(N)=O)c2)c(O)c2c1C[C@H]1C[C@H]3[C@H](N(C)C)C(O)=C(C(N)=O)C(=O)[C@@]3(O)C(O)=C1C2=O :: **
CN(C)c1cc(-c2ccsc2)c(O)c2c1C[C@H]1C[C@H]3[C@H](N(C)C)C(O)=C(C(N)=O)C(=O)[C@@]3(O)C(O)=C1C2=O :: ***

Then there is this compound:
Inquiry: Would you mind telling me what Median MIC for S. pneumoniae 157E value was observed for CC(=O)Nc1ccc(-c2cc(N(C)C)c3c(c2O)C(=O)C2=C(O)[C@]4(O)C(=O)C(C(N)=O)=C(O)[C@@H](N(C)C)[C@@H]4C[C@@H]2C3)cn1 ?
Reply text: ***

Where do the numbers come from? From patent US8466132B2.
